Data origin: ChEMBL document CHEMBL1821664

- measurementTarget: Hypoxia inducible factors; HIF-1-alpha, HIF-2-alpha (Homo sapiens, UniProt Q16665+Q99814)
- protocolText: Inhibition of hypoxia-induced HIF1 activation in human LN229 cells expressing HRE-AP reporter gene at 2.5 uM preincubated for 1 hr under normoxia condition followed by 24 hrs incubation under hypoxia condition by HRE-luciferase reporter assay relative to control; values are per cent of control
// reported residual activity for each item listed
Answer with a number only, understood to be in %.

Example entries begin here.
smilesEntry	unitsText	residual activity
CC1(C)C=Cc2cc(CN(c3ccccc3)S(=O)(=O)c3cc(Cl)ccc3Cl)ccc2O1	%	62
CC1(C)C=Cc2cc(CN(C3CCCCC3)S(=O)(=O)c3ccc([N+](=O)[O-])cc3)ccc2O1	%	68
CC1(C)C=Cc2cc(CN(C3CCCCC3)S(=O)(=O)c3cc(Cl)ccc3Cl)ccc2O1	%	54
COc1ccc(S(=O)(=O)N(Cc2ccccc2)Cc2ccc3c(c2)C=CC(C)(C)O3)c(OC)c1	%	60

Next up:
Lookup: Could you share which residual activity value was measured for "COc1ccc(S(=O)(=O)N(Cc2ccc3c(c2)C=CC(C)(C)O3)C2CCCCC2)c(OC)c1" ?
Found: 24
